Target: TLR9 (Homo sapiens, UniProt Q9NR96)
Sequence (Q9NR96 26-1032): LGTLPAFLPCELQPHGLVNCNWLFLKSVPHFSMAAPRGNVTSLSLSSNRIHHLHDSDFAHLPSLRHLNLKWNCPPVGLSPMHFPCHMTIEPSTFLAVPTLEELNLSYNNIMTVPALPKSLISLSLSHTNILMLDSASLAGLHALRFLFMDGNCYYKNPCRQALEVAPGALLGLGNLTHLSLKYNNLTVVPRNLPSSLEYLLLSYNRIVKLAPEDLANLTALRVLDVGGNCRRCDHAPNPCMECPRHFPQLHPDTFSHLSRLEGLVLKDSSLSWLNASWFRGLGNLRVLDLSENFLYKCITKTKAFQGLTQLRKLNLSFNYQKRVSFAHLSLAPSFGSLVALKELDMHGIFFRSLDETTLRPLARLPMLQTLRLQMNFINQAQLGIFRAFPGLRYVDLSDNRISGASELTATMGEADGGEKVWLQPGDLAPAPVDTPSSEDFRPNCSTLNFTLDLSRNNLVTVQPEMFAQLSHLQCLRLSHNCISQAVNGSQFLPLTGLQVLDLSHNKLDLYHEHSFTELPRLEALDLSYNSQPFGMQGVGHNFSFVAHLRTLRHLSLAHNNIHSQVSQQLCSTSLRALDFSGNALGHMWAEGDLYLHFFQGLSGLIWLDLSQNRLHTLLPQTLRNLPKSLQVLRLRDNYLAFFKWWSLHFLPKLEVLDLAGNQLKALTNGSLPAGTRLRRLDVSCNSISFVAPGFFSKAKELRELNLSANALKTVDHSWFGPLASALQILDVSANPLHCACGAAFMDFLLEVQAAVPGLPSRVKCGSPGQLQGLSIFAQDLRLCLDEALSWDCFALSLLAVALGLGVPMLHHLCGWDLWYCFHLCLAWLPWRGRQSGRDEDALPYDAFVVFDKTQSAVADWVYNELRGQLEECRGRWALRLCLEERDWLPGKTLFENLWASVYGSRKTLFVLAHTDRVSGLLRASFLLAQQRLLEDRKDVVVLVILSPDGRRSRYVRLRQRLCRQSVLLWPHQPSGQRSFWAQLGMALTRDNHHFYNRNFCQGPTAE
Experiment: HEK293-Blue-hTLR-9 cells assay
Assay type: cell-based
Set-up: host or cells: HEK293 (HEK-Blue hTLR9)
Details: HEK293-Blue-hTLR9 cells, ODN2006 stimulation, 20 hrs, SEAP reporter; read-out: HEK/hTLR9 IC50
Quantity name: IC50 (nM)

Study these solved cases before continuing.
[[record]]
compound = "C[C@@H]1Cc2c(cnn2C2CN(C[C@H]3CN(c4ccc(C#N)c5ncccc45)C[C@@H](C)O3)C2)CN1 [Example 16]"
data_value = 78

[[record]]
compound = "Cc1nn(C2CN(C[C@H]3CN(c4ccc(C#N)c5ncccc45)C[C@@H](C)O3)C2)c2c1CNCC2 [Example 12]"
data_value = 78

[[record]]
compound = "C[C@@H]1CN(c2ccc(C#N)c3ncccc23)C[C@H](CN2CC(n3ncc4c3[C@@H](C)NCC4)C2)O1 (single isomer, unassigned) [Example 31]"
data_value = 61

[[record]]
compound = "C[C@@H]1CN(c2ccc(C#N)c3ncccc23)C[C@H](CN2CC(n3cc4c(n3)CNC4)C2)O1 [Example 11]"
data_value = 49


[I] C[C@@H]1Cc2cn(C3CN(C[C@H]4CN(c5ccc(C#N)c6ncccc56)C[C@@H](C)O4)C3)nc2CN1 (single isomer, unassigned) [Example 30]
[II] C[C@@H]1Cc2nn(C3CN(C[C@H]4CN(c5ccc(C#N)c6ncccc56)C[C@@H](C)O4)C3)cc2CN1 [Example 17]
Prompt: Hi there! Just curious which has the higher IC50 between I and II . Response format: the label of the selected entry.
Response: II
(II: 88 nM, I: 57 nM)

###

target: human TLR7 (Homo sapiens); construct: host or cells: HEK293 (HEK-Blue hTLR7); assay: HEK293-Blue-hTLR-7 cells assay; assay type: cell-based; conditions: HEK293-Blue-hTLR7 cells, R848 stimulation, 20 hrs, SEAP reporter; read-out: HEK/hTLR7 IC50
Sequence (Q9NYK1 27-1049): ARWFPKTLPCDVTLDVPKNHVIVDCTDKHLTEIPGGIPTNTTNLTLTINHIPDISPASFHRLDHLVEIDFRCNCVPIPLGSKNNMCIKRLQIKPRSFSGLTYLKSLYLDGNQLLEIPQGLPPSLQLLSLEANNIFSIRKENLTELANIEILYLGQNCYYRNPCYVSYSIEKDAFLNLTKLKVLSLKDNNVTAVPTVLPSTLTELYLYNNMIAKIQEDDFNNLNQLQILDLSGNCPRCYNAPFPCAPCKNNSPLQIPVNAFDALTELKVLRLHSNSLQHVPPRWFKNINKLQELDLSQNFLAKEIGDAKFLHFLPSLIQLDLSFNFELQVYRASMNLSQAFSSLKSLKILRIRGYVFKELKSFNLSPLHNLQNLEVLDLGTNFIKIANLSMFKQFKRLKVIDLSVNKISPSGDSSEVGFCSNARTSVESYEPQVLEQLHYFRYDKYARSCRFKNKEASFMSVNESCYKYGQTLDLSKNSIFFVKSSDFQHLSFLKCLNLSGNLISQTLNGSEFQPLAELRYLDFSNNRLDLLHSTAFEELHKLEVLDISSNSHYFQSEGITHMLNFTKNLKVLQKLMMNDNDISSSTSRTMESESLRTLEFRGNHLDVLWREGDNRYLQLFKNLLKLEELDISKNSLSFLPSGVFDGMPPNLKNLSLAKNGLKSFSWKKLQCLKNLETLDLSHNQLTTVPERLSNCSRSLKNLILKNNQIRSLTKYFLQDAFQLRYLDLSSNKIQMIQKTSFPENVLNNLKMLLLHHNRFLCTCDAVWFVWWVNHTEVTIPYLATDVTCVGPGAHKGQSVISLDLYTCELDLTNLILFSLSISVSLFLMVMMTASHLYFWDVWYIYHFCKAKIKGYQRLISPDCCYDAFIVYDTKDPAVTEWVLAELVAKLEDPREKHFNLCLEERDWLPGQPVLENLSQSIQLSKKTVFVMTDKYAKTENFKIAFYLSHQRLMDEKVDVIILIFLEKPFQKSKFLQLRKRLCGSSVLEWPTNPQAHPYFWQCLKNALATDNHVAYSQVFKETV
Quantity name: IC50 (nM)

[A] C[C@@H]1CN(c2ccc(C#N)c3ncccc23)C[C@H](CN2CC(n3ncc4c3CCN[C@H]4C)C2)O1
[B] C[C@@H]1CN(c2ccc(C#N)c3ncccc23)C[C@H](CN2CC(n3cc4c(n3)CCN[C@@H]4C)C2)O1
Prompt: Hi there! Just curious which has the higher IC50 between A and B . Response format: the label of the selected entry.
Response: B

###

The entries below are paired with their reported pIC50.
target: UniProt:Q12809; test: hERG channel inhibition assay (patch-clamp, CHOhERG cells); conditions: CHOhERG cells, whole-cell patch-clamp
pIC50: −log10 of the molar value.

[[record]]
molecule = "Cc1c2c(nn1C1CN(C[C@H]3CN(c4ccc(C#N)c5ncccc45)C[C@@H](C)O3)C1)CCNC2"
data_value = "< 4.70"

[[record]]
molecule = "C[C@@H]1CN(c2ccc(C#N)c3ncccc23)C[C@H](CN2CC(n3cc4c(n3)CN(C)CC4)C2)O1"
data_value = "< 4.70"

[[record]]
molecule = "C[C@@H]1CN(c2ccc(C#N)c3ncccc23)C[C@H](CN2CC(n3ncc4c3CNCC4)C2)O1"
data_value = "< 4.70"

[[record]]
molecule = "C[C@@H]1CN(c2ccc(C#N)c3ncccc23)C[C@H](CN2CC(n3cc4c(n3)CNC4)C2)O1"
data_value = "< 4.70"

[[record]]
molecule = "C[C@@H]1Cc2cn(C3CN(C[C@H]4CN(c5ccc(C#N)c6ncccc56)C[C@@H](C)O4)C3)nc2CN1 (single isomer, unassigned)"
data_value = "< 4.70"


Prompt: Given the entry `Cc1nn(C2CN(C[C@H]3CN(c4ccc(C#N)c5ncccc45)C[C@@H](C)O3)C2)c2c1CNCC2` , what pIC50 was observed with UniProt:Q12809?
Response: < 4.70

Prompt: Given the entry `C[C@@H]1CN(c2ccc(C#N)c3ncccc23)C[C@H](CN2CC(n3cc4c(n3)CNCC4)C2)O1` , what pIC50 was observed with UniProt:Q12809?
Response: < 4.70

###

The entries below are paired with their reported hERG IC20/TLR7 IC50.
target: hERG channel (Homo sapiens); construct: expressed in transfected cells; host or cells: CHO (Chinese hamster ovary), CHOhERG; experiment: hERG channel inhibition assay (patch-clamp, CHOhERG cells); assay type: cell-based; conditions: safety ratio; >30 suggests sufficient window
Please give the numeric answer without any surrounding text.

[[record]]
compound = "C[C@@H]1CN(c2ccc(C#N)c3ncccc23)C[C@H](CN2CCN(c3ccccn3)CC2)O1 [ER-888285, reference compound]"
tgt = "hERG channel (Homo sapiens)"
quantity_name = "hERG IC20/TLR7 IC50"
data_value = 8.4


Prompt: Which hERG IC20/TLR7 IC50 is reported for this compound? COc1ccc(N2CCN(C[C@H]3CN(c4ccc(C#N)c5ncccc45)C[C@@H](C)O3)CC2)cc1 [Example R1, reference compound]
Response: 9.3

###

assay: Human microsome stability assay; assay type: in vitro ADME; conditions: 1 μM test compound, 0.5 mg/mL liver microsomal protein, 37° C., up to 30 minutes; 6.2 = detection limit
Quantity name: Clearance of Human microsome (mL/min/kg)

[[record]]
compound = "C[C@@H]1CN(c2ccc(C#N)c3ncccc23)C[C@H](CN2CC(n3ncc4c3CCN[C@H]4C)C2)O1 [Example 22]"
data_value = 6.2

[[record]]
compound = "C[C@@H]1CN(c2ccc(C#N)c3ncccc23)C[C@H](CN2CC(n3cc4c(n3)CNCC4)C2)O1 [Example 4]"
data_value = 6.2

[[record]]
compound = "C[C@@H]1CN(c2ccc(C#N)c3ncccc23)C[C@H](CN2CC(n3cc4c(n3)CN[C@@H](C)C4)C2)O1 (single isomer, unassigned) [Example 29]"
data_value = 6.6

[[record]]
compound = "C[C@@H]1CN(c2ccc(C#N)c3ncccc23)C[C@H](CN2CC(n3cc4c(n3)CN(C)CC4)C2)O1 [Example 5]"
data_value = 6.2

[[record]]
compound = "C[C@@H]1Cc2cnn(C3CN(C[C@H]4CN(c5ccc(C#N)c6ncccc56)C[C@@H](C)O4)C3)c2CN1 (single isomer, unassigned) [Example 28]"
data_value = 6.2

[[record]]
compound = "C[C@@H]1CN(c2ccc(C#N)c3ncccc23)C[C@H](CN2CC(n3cc4c(n3)C[C@H](C)NC4)C2)O1 [Example 19]"
data_value = 6.2


###

biological target: hERG channel (Homo sapiens, UniProt Q12809); construct: expressed in transfected cells; host or cells: CHO (Chinese hamster ovary), CHOhERG; test: hERG channel inhibition assay (patch-clamp, CHOhERG cells); format: cell-based; conditions: safety ratio; >30 suggests sufficient window
Sequence (Q12809 whole entry): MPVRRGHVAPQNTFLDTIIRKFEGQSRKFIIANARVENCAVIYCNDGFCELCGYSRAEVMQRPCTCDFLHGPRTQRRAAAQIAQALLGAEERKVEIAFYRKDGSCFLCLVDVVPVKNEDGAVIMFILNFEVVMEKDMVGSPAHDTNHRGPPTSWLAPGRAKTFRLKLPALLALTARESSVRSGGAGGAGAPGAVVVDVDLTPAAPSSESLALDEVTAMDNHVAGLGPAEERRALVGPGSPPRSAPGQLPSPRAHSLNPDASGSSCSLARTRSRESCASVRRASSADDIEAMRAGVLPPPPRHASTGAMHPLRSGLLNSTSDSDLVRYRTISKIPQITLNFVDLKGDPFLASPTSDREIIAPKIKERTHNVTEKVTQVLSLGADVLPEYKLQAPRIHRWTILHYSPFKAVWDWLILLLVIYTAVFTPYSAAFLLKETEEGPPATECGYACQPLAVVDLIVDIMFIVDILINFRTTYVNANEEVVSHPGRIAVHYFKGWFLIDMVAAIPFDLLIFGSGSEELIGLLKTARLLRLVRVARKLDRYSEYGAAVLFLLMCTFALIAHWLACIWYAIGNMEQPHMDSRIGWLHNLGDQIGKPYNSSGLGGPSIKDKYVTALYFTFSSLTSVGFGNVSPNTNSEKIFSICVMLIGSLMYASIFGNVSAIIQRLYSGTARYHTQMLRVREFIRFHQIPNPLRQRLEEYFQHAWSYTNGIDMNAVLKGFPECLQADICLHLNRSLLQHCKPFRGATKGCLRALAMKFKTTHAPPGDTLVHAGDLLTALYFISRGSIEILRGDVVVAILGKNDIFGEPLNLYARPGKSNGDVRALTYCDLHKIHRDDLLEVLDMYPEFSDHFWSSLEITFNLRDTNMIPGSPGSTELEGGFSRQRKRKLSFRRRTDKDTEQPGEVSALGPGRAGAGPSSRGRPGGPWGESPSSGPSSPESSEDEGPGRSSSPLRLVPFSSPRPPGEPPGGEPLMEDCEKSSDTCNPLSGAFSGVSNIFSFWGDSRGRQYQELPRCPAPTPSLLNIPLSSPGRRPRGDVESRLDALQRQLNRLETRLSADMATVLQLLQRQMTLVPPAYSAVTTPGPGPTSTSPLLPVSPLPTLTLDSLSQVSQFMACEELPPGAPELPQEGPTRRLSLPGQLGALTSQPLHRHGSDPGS
Quantity name: hERG IC20/TLR9 IC50

[[record]]
molecule = "Cc1nn(C2CN(C[C@H]3CN(c4ccc(C#N)c5ncccc45)C[C@@H](C)O3)C2)c2c1CNCC2"
tgt = "hERG channel (Homo sapiens, UniProt Q12809)"
quantity_name = "hERG IC20/TLR9 IC50"
data_value = ">127.6"

[[record]]
molecule = "C[C@@H]1CN(c2ccc(C#N)c3ncccc23)C[C@H](CN2CC(n3ncc4c3CCNC4)C2)O1"
tgt = "hERG channel (Homo sapiens, UniProt Q12809)"
quantity_name = "hERG IC20/TLR9 IC50"
data_value = ">174.0"

[[record]]
molecule = "C[C@@H]1CN(c2ccc(C#N)c3ncccc23)C[C@H](CN2CC(n3cc4c(n3)CNC4)C2)O1"
tgt = "hERG channel (Homo sapiens, UniProt Q12809)"
quantity_name = "hERG IC20/TLR9 IC50"
data_value = ">204.5"

[[record]]
molecule = "C[C@@H]1CN(c2ccc(C#N)c3ncccc23)C[C@H](CN2CC(n3cc4c(n3)[C@@H](C)NCC4)C2)O1 (single isomer, unassigned)"
tgt = "hERG channel (Homo sapiens, UniProt Q12809)"
quantity_name = "hERG IC20/TLR9 IC50"
data_value = ">291.5"


Shift focus to the following entry.
Prompt: Which hERG IC20/TLR9 IC50 is reported for this molecule? C[C@@H]1CN(c2ccc(C#N)c3ncccc23)C[C@H](CN2CC(n3cc4c(n3)CN[C@@H](C)C4)C2)O1 (single isomer, unassigned)
Response: >138.3
